From: PubChem BioAssay

Experiment summary: inhibition of 3D7 malaria parasite growth – strain 3D7 (AID 2306);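 note: 0% = DMSO wells and 100% = chloroquine plus artemisinin control wells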
Experimental context: P. falciparum 3D7 erythrocytic growth, LDH absorbance, 72 h; at 2 µM; active compounds read high
Experimental readout: growth inhibition (%)
Quick note: give the figure in %, leave out the unit.

# example entries with known answers
- Smiles notation: "CC1(C)N=C(N)N=C(N)N1OCCCc1ccccc1"
  Units of measure: "%"
  Measurement: 96
- Smiles notation: "CCc1cn2c3c(cc(C(=O)N[C@@H](Cc4ccccc4)[C@H](O)CNCC(C)C)cc13)N(C)S(=O)(=O)CC2"
  Units of measure: "%"
  Measurement: 98
- Smiles notation: "Cc1onc(-c2ccc(Cl)cc2)c1-c1ccnn1S(=O)(=O)c1ccc(Cl)cc1"
  Units of measure: "%"
  Measurement: 101
- Smiles notation: "COc1cccc(NC(=O)Nc2ccc(Nc3nc(C)cc(N(C)C)n3)cc2)c1"
  Units of measure: "%"
  Measurement: 101
- Smiles notation: "O=C(Nc1ccc(F)c([N+](=O)[O-])c1)Nc1cc(C(F)(F)F)ccc1Cl"
  Units of measure: "%"
  Measurement: 101

Kindly note the recorded growth inhibition for "CN(C)CCNCc1ccc(-c2ccc(-c3nc4ccccc4[nH]3)s2)cc1" , which is 101

Kindly note the recorded growth inhibition for "COC(=O)[C@@H](NC(=O)[C@H](CC(C)C)Nc1ccc(C#N)c2ccccc12)c1ccc(O)cc1" , which is 98

Kindly note the recorded growth inhibition for "O=C(Nc1ccc(Cl)cc1)c1ccc(S(=O)(=O)NCC2CCN(CC3CCCCC3)CC2)cc1" , which is 93

Kindly note the recorded growth inhibition for "N#Cc1cnc2cc(-c3cnc(CNCCN4CCOCC4)s3)ccc2c1Nc1ccc(Oc2ccccc2)cc1" , which is 97
